The values you see were collected from ChEMBL document CHEMBL3885861.

organism: Rattus norvegicus; experiment: Open TG-GATES - Regimen: Single; format: toxicity, organism-based, Sprague-Dawley; set-up: regimen Single, gender Male, age 6 weeks; conditions: in vivo, po, 0 mg/kg, 3 h, tissue Blood, route gavage, dose level Control
MEASUREMENT_LABEL: APTT (s)
One number for each entry, in s.

# COMPOUND, ENDPOINT_UNIT, APTT
data = [
    ("CCN(CC)C(=S)SSC(=S)N(CC)CC", "s", 21.9),
    ("O=C(O)c1ccccc1Nc1ccccc1", "s", 16.5),
    ("NS(=O)(=O)c1cc(C(=O)O)c(NCc2ccco2)cc1Cl [FUROSEMIDE]", "s", 15.8),
    ("CCO", "s", 17.7),
    ("CC(S)C(=O)NCC(=O)O (stereo unspecified)", "s", 22.5),
]

Each of the following entries comes with a recorded value; kindly state APTT for each.
1. CN(CCOc1ccc(CC2SC(=O)NC2=O)cc1)c1ccccn1.O=C(O)/C=C\C(=O)O (stereo unspecified) [ROSIGLITAZONE MALEATE]
2. O=c1ccc2ccccc2o1
3. CN(C/C=C/C#CC(C)(C)C)Cc1cccc2ccccc12
4. CC(=O)[C@@]1(O)CC[C@H]2[C@@H]3C=C(Cl)C4=CC(=O)CC[C@]4(C)[C@H]3CC[C@@]21C
5. Nc1ccc(Cc2ccc(N)cc2)cc1
6. CCCCNC(=O)NS(=O)(=O)c1ccc(C)cc1 [TOLBUTAMIDE]

Result ::
15.8
16.6
18.8
23.2
13.9
16.5

* * *

What KIDNEY_R was measured for each of the following?
organism: Rattus norvegicus; experiment: Open TG-GATES - Regimen: Daily Repeat; assay type: toxicity, organism-based, Sprague-Dawley; parameters: regimen Daily Repeat, gender Male, age 6 weeks; conditions: in vivo, po, 1000 mg/kg, 72 h, tissue Kidney, route gavage, dose level High, time 3 day
One number for each entry, in g.

Some entries whose results are on file:
# MOLECULE, KIDNEY_R (g)
measured = [
    ("O=C(O)c1ccccc1Nc1ccccc1", 1.1),
    ("CCCCNC(=O)NS(=O)(=O)c1ccc(C)cc1 [TOLBUTAMIDE]", 1),
    ("CC(S)C(=O)NCC(=O)O (centres undefined)", 1),
]

Proceed to the following item.
Query :: I have this molecule here, `CC(=O)[C@@]1(O)CC[C@H]2[C@@H]3C=C(Cl)C4=CC(=O)CC[C@]4(C)[C@H]3CC[C@@]21C` , and I need its recorded KIDNEY_R.
Result :: 1

* * *

organism: Rattus norvegicus; test: Open TG-GATES - Regimen: Daily Repeat; format: toxicity, organism-based, Sprague-Dawley; parameters: regimen Daily Repeat, gender Male, age 6 weeks; conditions: in vivo, po, 0 mg/kg, […], tissue Blood, route gavage, dose level Control, time 14 day
MEASUREMENT_LABEL: APTT

Some entries whose results are on file:
# MOLECULE, APTT
records = [
    ("CC(S)C(=O)NCC(=O)O (configuration not stated)", "22.9 s"),
    ("CN(CCOc1ccc(CC2SC(=O)NC2=O)cc1)c1ccccn1.O=C(O)/C=C\\C(=O)O (configuration not stated) [ROSIGLITAZONE MALEATE]", "15.7 s"),
    ("CCN(CC)C(=S)SSC(=S)N(CC)CC", "23.7 s"),
    ("CCO", "19.1 s"),
]

Each of the following entries comes with a recorded value; kindly state APTT for each.
1. O=C(O)c1ccccc1Nc1ccccc1
2. CCCCNC(=O)NS(=O)(=O)c1ccc(C)cc1 [TOLBUTAMIDE]
3. CCCCC1C(=O)N(c2ccccc2)N(c2ccccc2)C1=O
4. NS(=O)(=O)c1cc(C(=O)O)c(NCc2ccco2)cc1Cl [FUROSEMIDE]
5. CN(C/C=C/C#CC(C)(C)C)Cc1cccc2ccccc12
6. CC(=O)[C@@]1(O)CC[C@H]2[C@@H]3C=C(Cl)C4=CC(=O)CC[C@]4(C)[C@H]3CC[C@@]21C
7. O=c1ccc2ccccc2o1
8. Nc1ccc(Cc2ccc(N)cc2)cc1

Result ::
1: 16.3 s; 2: 17.6 s; 3: 16.4 s; 4: 19.3 s; 5: 19.6 s; 6: 23.6 s; 7: 16.7 s; 8: 14.9 s

* * *

What Fbg was measured for each of the following?
species on record: Rattus norvegicus; assay: Open TG-GATES - Regimen: Daily Repeat; format: toxicity, organism-based, Sprague-Dawley; set-up: regimen Daily Repeat, gender Male, age 6 weeks; details: in vivo, po, 100 mg/kg, […], tissue Blood, route gavage, dose level Low, time 28 day
Give bare numbers, in mg/dL.

Some entries whose results are on file:
# MOLECULE, ENDPOINT_UNIT, QUANTITATIVE_READOUT
measured = [
    ("O=C(O)c1ccccc1Nc1ccccc1", "mg/dL", 305.2),
    ("CC(=O)[C@@]1(O)CC[C@H]2[C@@H]3C=C(Cl)C4=CC(=O)CC[C@]4(C)[C@H]3CC[C@@]21C", "mg/dL", 303.4),
]

Each of the following entries comes with a recorded value; kindly state Fbg for each.
1. CC(S)C(=O)NCC(=O)O (centres undefined)
2. CCCCNC(=O)NS(=O)(=O)c1ccc(C)cc1 [TOLBUTAMIDE]

Result ::
1: 325.8; 2: 287.2

* * *

What Bas was measured for each of the following?
species: Rattus norvegicus; assay: Open TG-GATES - Regimen: Daily Repeat; type: toxicity, organism-based, Sprague-Dawley; set-up: regimen Daily Repeat, gender Male, age 6 weeks; conditions: in vivo, po, 300 mg/kg, 72 h, tissue Blood, route gavage, dose level Middle, time 3 day
Write the numeric value and follow it with the unit.

Some entries whose results are on file:
# COMPOUND, Bas
rows = [
    ("O=C(O)c1ccccc1Nc1ccccc1 [FENAMIC ACID]", "0.4%"),
    ("CC(S)C(=O)NCC(=O)O (centres undefined) [TIOPRONIN]", "0%"),
    ("CC(=O)[C@@]1(O)CC[C@H]2[C@@H]3C=C(Cl)C4=CC(=O)CC[C@]4(C)[C@H]3CC[C@@]21C [CHLORMADINONE]", "0%"),
]

Query :: I have this compound here, CCCCNC(=O)NS(=O)(=O)c1ccc(C)cc1 [TOLBUTAMIDE] , and I need its recorded Bas.
Result :: 0%

* * *

What KIDNEY_TOTAL was measured for each of the following?
organism: Rattus norvegicus; experiment: Open TG-GATES - Regimen: Single; type: toxicity, organism-based, Sprague-Dawley; set-up: regimen Single, gender Male, age 6 weeks; settings: in vivo, po, 0 mg/kg, 3 h, tissue Kidney, route gavage, dose level Control
Answers are plain numbers, in g.

Some entries whose results are on file:
# COMPOUND, ENDPOINT_UNIT, QUANTITATIVE_READOUT
data = [
    ("CCO [ALCOHOL]", "g", 1.9),
    ("COc1ccc([C@@H]2Sc3ccccc3N(CCN(C)C)C(=O)[C@@H]2OC(C)=O)cc1 [DILTIAZEM]", "g", 1.8),
    ("CN(CCOc1ccc(CC2SC(=O)NC2=O)cc1)c1ccccn1.O=C(O)/C=C\\C(=O)O (stereo not given) [ROSIGLITAZONE MALEATE]", "g", 0.6),
    ("O=C(O)c1ccccc1Nc1ccccc1 [FENAMIC ACID]", "g", 1.8),
    ("C=C[C@H]1C[N@@]2CC[C@H]1C[C@@H]2[C@@H](O)c1ccnc2ccc(OC)cc12 [QUINIDINE]", "g", 1.9),
]

Each of the following entries comes with a recorded value; kindly state KIDNEY_TOTAL for each.
1. CN(C)CCCN1c2ccccc2Sc2ccc(Cl)cc21 [CHLORPROMAZINE]
2. Nc1ccc(Cc2ccc(N)cc2)cc1
3. CC(=O)[C@@]1(O)CC[C@H]2[C@@H]3C=C(Cl)C4=CC(=O)CC[C@]4(C)[C@H]3CC[C@@]21C [CHLORMADINONE]
4. CC(S)C(=O)NCC(=O)O (stereo not given) [TIOPRONIN]
5. COc1cc2ncnc(Nc3ccc(F)c(Cl)c3)c2cc1OCCCN1CCOCC1 [GEFITINIB]

Result ::
1. 2
2. 1.8
3. 2
4. 1.8
5. 1.8

* * *

species on record: Rattus norvegicus; test: Open TG-GATES - Regimen: Daily Repeat; type: toxicity, organism-based, Sprague-Dawley; set-up: regimen Daily Repeat, gender Male, age 6 weeks; conditions: in vivo, po, 1000 mg/kg, 72 h, tissue Plasma, route gavage, dose level High, time 3 day
MEASUREMENT_LABEL: ALP
Write the numeric value and follow it with the unit.

Some entries whose results are on file:
# COMPOUND, ALP
records = [
    ("CC(S)C(=O)NCC(=O)O (centres undefined)", "1581.6 IU/L"),
    ("O=C(O)c1ccccc1Nc1ccccc1", "1423.7 IU/L"),
    ("CCCCNC(=O)NS(=O)(=O)c1ccc(C)cc1 [TOLBUTAMIDE]", "1487 IU/L"),
]

Proceed to the following item.
Query :: I have this compound here, `CC(=O)[C@@]1(O)CC[C@H]2[C@@H]3C=C(Cl)C4=CC(=O)CC[C@]4(C)[C@H]3CC[C@@]21C` , and I need its recorded ALP.
Result :: 1434.6 IU/L
